# Measured Target: JAK3 (Homo sapiens)
# Construct: made in house; host or cells: SF9 insect cells (baculovirus)
# Test Description: JAK3 inhibition (Table 4)
# Format: biochemical
# Condition Notes: read-out: JAK3 Ki
Assay Readout: pKi
Bear in mind: pKi is minus log10 of a mol/L concentration; give just that figure.

Examples with answers:
In [3]: df
Out[3]:
                                   compound  assay_readout  observed_result
0  Cc1nc2cnc3[nH]ccc3c2n1C1(C)CCN(CCC#N)CC1            pKi             6.55
1  O=C(CN1CCOCC1)N1CCC(n2cnc3cnc4[nH]ccc4c32)CC1            pKi             5.66
2  O=C(c1ccccc1)N1CCC(n2cnc3cnc4[nH]ccc4c32)CC1            pKi             6.16
3  CC(C)(C)OC(=O)N1CCC(n2c(NCCO)nc3cnc4[nH]ccc4c32)CC1            pKi             5.68
4  CS(=O)(=O)N1CCC(n2nnc3cnc4[nH]ccc4c32)CC1            pKi             6.60

Continue with the next compound.
query: # value lookup — system JAK3 (Homo sapiens), readout pKi, item `O=C([C@@H]1COCCN1)N1CCC(n2cnc3cnc4[nH]ccc4c32)CC1`
result: 6.29

* * *

# Measured Target: JAK3 (Homo sapiens)
# Construct: made in house; host or cells: SF9 insect cells (baculovirus)
# Test Description: JAK3 inhibition (Table 4)
# Type: biochemical
# Condition Notes: read-out: JAK3 Ki
Reported Ki values for a set of compounds
State just the number; it will be interpreted in nM.

Examples with answers:
                                   compound  assay_readout  units_symbol  observed_result
0  COCCN1CC[C@H](n2c([C@@H](C)O)nc3cnc4[nH]ccc4c32)C(F)(F)C1             Ki            nM             28.9
1  C[C@@H](O)c1nc2cnc3[nH]ccc3c2n1[C@H]1CC[C@H](N(C)CC(F)(F)F)CC1             Ki            nM              147
2  CC(CC#N)N1CCC(n2c(CS(C)(=O)=O)nc3cnc4[nH]ccc4c32)CC1 (racemic)             Ki            nM             18.1
3  Cc1nc2cnc3[nH]ccc3c2n1C1CCN(S(C)(=O)=O)CC1             Ki            nM             71.6
4  c1cc2c(ncc3nc(C4CC4)n(C4CCNCC4)c32)[nH]1             Ki            nM              231

query: Any idea what Ki was measured for `OCCc1nc2cnc3[nH]ccc3c2n1[C@@H]1CCCNC1` ?
result: 1270

query: Subsequent entry: `CCN1CC[C@@H](n2c(CCNC(C)=O)nc3cnc4[nH]ccc4c32)[C@@H](F)C1`
result: 130

query: Subsequent entry: `Cc1nc2cnc3[nH]ccc3c2n1[C@@H]1CCCC(=O)C1`
result: 47.8

query: Subsequent entry: `COCCN1CCC(n2cnc3cnc4[nH]ccc4c32)CC1`
result: 96.5

* * *

Observed Ki, system TYK2 (Homo sapiens).
State just the number; it will be interpreted in nM.

Examples with answers:
In [3]: df
Out[3]:
                                   compound  units_symbol  observed_result
0  COC(=O)N1CCC(n2c([C@@H](C)O)nc3cnc4[nH]ccc4c32)CC1 [Example 929]            nM              281
1  c1ccc(CN2[C@@H]3CC[C@H]2C[C@H](n2cnc4cnc5[nH]ccc5c42)C3)cc1 [Example 81]            nM              222
2  CC(C)(C)OC(=O)N[C@@H]1CC[C@@H](n2cnc3cnc4[nH]ccc4c32)C1 [Example 134]            nM             62.4
3  COC[C@H](C)n1c(C)nc2cnc3[nH]ccc3c21 [Example 424]            nM              317

query: Any idea what Ki was measured for CC(CC#N)N1CCC(n2c(C3CC(=O)N(C)C3)nc3cnc4[nH]ccc4c32)CC1 (racemic) [Example 395] ?
result: 245

query: Subsequent entry: CS(=O)(=O)NCc1nc2cnc3[nH]ccc3c2n1C1CCN(Cc2ccccc2)CC1(F)F (racemic) [Example 946]
result: 156

query: Subsequent entry: C[C@@H](O)c1nc2cnc3[nH]ccc3c2n1C1CCN(Cc2cnn(C)c2)CC1 [Example 818]
result: 1380

query: Subsequent entry: CS(=O)(=O)NCc1nc2cnc3[nH]ccc3c2n1C1CCCC1 [Example 874]
result: 114

query: Subsequent entry: O=C(Cc1nc2cnc3[nH]ccc3c2n1C1CCNCC1)NC1CCCC1 [Example 265]
result: 570

query: Subsequent entry: C[C@@H](O)c1nc2cnc3[nH]ccc3c2n1C1CCN(Cc2ncco2)CC1 [Example 923]
result: 363

query: Subsequent entry: CC(C)(C)OC(=O)N1CCC[C@H]1C(=O)N1CCC(n2cnc3cnc4[nH]ccc4c32)CC1 [Example 144]
result: 3160

query: Subsequent entry: c1cnc(N2CCC(n3cnc4cnc5[nH]ccc5c43)CC2)cn1 [Example 72]
result: 56.7

query: Subsequent entry: N#CCC(=O)N1CCC[C@@H](n2nnc3cnc4[nH]ccc4c32)C1 [Example 19]
result: 20.3

* * *

Reported pKi values for a set of compounds
# Measured Target: JAK3 (Homo sapiens)
# Construct: made in house; host or cells: SF9 insect cells (baculovirus)
# Test Description: JAK3 inhibition (Table 4)
# Format: biochemical
# Condition Notes: read-out: JAK3 Ki
Bear in mind: pKi is minus log10 of a mol/L concentration; give just that figure.

Examples with answers:
>>> df
                                   compound  observed_result
0  Cn1ncc2c1CC[C@@H](n1cnc3cnc4[nH]ccc4c31)C2             6.96
1  c1ccc(CN2CCC(n3c(Cn4cccn4)nc4cnc5[nH]ccc5c43)CC2)cc1             7.91
2  OC(c1nc2cnc3[nH]ccc3c2n1C1CCCCC1)C1CCOCC1 (racemic)             7.02

query: Any idea what pKi was measured for CC(O)c1nc2cnc3[nH]ccc3c2n1C1CC2CCC1O2 (stereo not drawn) [Example 906] ?
result: 6.56

query: Subsequent entry: `OC[C@]1(O)CC[C@H](n2nnc3cnc4[nH]ccc4c32)CC1`
result: 6.96

query: Subsequent entry: c1cc2c(ncc3ncn(CC4CCNC4)c32)[nH]1 (racemic)
result: 5.73

query: Subsequent entry: `c1cc2c(ncc3ncn(C4CCN(Cc5cocn5)CC4)c32)[nH]1`
result: 7.33

query: Subsequent entry: Cc1nc2cnc3[nH]ccc3c2n1C1CCc2[nH]ncc2C1 (racemic)
result: 7.99

query: Subsequent entry: `Cc1nc2cnc3[nH]ccc3c2n1[C@H]1CC[C@@H](C(=O)O)CC1`
result: 7.41

query: Subsequent entry: N#CCCN1CCC(n2c(COCC3CCOC3)nc3cnc4[nH]ccc4c32)CC1 (stereo not drawn)
result: 7.02

query: Subsequent entry: `O[C@@H]1CC[C@H](n2cnc3cnc4[nH]ccc4c32)C1`
result: 7.35

query: Subsequent entry: `Cn1ncc2c1CC[C@H](n1cnc3cnc4[nH]ccc4c31)C2`
result: 6.46

* * *

# Measured Target: JAK3 (Homo sapiens, UniProt P52333)
# Construct: made in house; host or cells: SF9 insect cells (baculovirus)
# Sequence (P52333 783-1124): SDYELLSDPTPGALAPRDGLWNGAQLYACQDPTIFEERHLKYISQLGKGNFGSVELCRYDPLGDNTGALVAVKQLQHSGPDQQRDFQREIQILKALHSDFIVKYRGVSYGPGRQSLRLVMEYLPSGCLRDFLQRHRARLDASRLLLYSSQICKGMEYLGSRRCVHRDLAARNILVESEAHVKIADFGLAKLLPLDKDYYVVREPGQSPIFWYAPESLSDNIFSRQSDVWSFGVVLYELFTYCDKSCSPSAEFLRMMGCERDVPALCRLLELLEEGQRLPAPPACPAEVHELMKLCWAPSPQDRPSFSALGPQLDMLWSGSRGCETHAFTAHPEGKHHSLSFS
# Test Description: JAK3 inhibition (Table 4)
# Format: biochemical
# Condition Notes: read-out: JAK3 Ki
Assay Readout: pKi
Bear in mind: pKi is minus log10 of a mol/L concentration; give just that figure.

Examples with answers:
>>> df
                                   compound  assay_readout  observed_result
0  CS(=O)(=O)NC1CCC(n2cnc3cnc4[nH]ccc4c32)C1 (racemic)            pKi             7.74
1  N#CC1(C(=O)N2CCC[C@@H](n3cnc4cnc5[nH]ccc5c43)C2)CC1            pKi             8.09
2  OC1CCCC(n2nnc3cnc4[nH]ccc4c32)C1 (single isomer, unassigned) [Example 554]            pKi             7.11

query: Any idea what pKi was measured for C[C@@H](N)c1nc2cnc3[nH]ccc3c2n1C1CCCOC1 (single isomer, unassigned) ?
result: 6.08

* * *

# Measured Target: JAK2 (Homo sapiens, UniProt O60674)
# Construct: made in house; host or cells: SF9 insect cells (baculovirus)
# Sequence (O60674 812-1132): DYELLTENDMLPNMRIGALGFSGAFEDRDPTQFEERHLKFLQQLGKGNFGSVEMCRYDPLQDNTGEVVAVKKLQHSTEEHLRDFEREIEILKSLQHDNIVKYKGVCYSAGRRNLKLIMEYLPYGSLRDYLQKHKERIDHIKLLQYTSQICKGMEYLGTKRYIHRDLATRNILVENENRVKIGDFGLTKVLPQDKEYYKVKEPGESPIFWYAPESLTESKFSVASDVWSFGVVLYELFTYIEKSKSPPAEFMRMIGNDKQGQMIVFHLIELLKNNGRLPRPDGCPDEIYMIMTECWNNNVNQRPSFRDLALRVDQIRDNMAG
# Test Description: JAK2 inhibition (Table 4)
# Assay type: biochemical
# Condition Notes: read-out: JAK2 Ki
// assign Condition met if Ki falls strictly below 30 nM, else Condition not met (ties count as Condition not met)

Would you please look over these solved cases?
                                   compound     classification
0  c1cc2c(ncc3nnn(C4CCCOC4)c32)[nH]1 (single isomer, unassigned) [Example 460]      Condition met
1  C[C@@H](O)c1nc2cnc3[nH]ccc3c2n1C1CCNCC1F (stereo partly drawn)  Condition not met
2  CC(C)(C#N)C(=O)N1CC[C@@H](n2cnc3cnc4[nH]ccc4c32)C1  Condition not met
3  CC(=O)NCc1nc2cnc3[nH]ccc3c2n1C1CCN(CCC#N)CC1  Condition not met
4  CCN1CC[C@@H](n2c(C)nc3cnc4[nH]ccc4c32)[C@@H](F)C1      Condition met

query: Please state whether Ki is below 30 nM for `Cc1nn(C)cc1CN1CCC(n2c([C@@H](C)O)nc3cnc4[nH]ccc4c32)CC1`
result: Condition not met

query: Subsequent entry: FC1CNCCC1n1nnc2cnc3[nH]ccc3c21 (racemic) [Example 525]
result: Condition not met

query: Subsequent entry: COC1CCCC(n2c(C)nc3cnc4[nH]ccc4c32)C1 (stereo not drawn)
result: Condition not met
